TARGET OF ASSAY: T1, human MSLN-FL-his protein (human, UniProt Q13421 296-580)
T1 construct: made in HEK293E cells, purified on nickel column; also called hMSLN-FL-his; human MSLN full-length protein; not shown: His tag
T1 sequence (Q13421 other isoform, or with tags, fused parts or gaps): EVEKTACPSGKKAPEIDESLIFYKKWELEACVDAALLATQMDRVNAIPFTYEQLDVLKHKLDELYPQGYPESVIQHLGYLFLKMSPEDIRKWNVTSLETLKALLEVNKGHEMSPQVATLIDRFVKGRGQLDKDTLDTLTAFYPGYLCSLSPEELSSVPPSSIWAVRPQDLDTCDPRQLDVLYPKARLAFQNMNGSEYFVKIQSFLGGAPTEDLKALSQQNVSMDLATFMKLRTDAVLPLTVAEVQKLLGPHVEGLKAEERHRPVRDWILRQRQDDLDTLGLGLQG
TEST DESCRIPTION: competitive ELISA; row Tab108 (R3); note: test concentration or dose not given here
Measured competition rate accompanies every entry in the list below.
Field: numeric (%). Do not append units.

Q. Give competition rate for the following binder: S009-F2.13.3 (antibody, human IgG1, kappa, V domains shown, human-murine chimeric antibody, human IgG1/kappa constant regions) VH: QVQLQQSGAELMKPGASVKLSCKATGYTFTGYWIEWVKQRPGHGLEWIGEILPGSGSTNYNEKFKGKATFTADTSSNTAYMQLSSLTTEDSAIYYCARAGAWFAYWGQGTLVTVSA VL: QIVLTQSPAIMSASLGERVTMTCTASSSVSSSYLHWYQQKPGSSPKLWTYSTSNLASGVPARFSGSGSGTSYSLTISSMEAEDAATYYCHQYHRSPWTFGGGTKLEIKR
A. -105

---
Q. Provide only the value of recorded competition rate for S009-F1.2.12 (antibody, human IgG1, kappa, V domains shown, human-murine chimeric antibody, human IgG1/kappa constant regions) VH: QVQLKQTGPGLVQPSQSLSITCTVSGFSLTNYAVHWVRQSPGKGLEWLGVIWSGGATDYNTVFISRLSISKDNSKSQVFFKVNSLQVDDTAIYYCARTGSGYAMDYWGQGTSVTVSS VL: DIVLTQSPATLSVTPGDRVSLSCRTSHNVNTYLHWYQQKSHESPRLLIKYASQSISEIPSRFSGSGSGTNFTLSINSVETEDFGMYFCHQTNRWPLTFGAGTKLELKR
A. -29
